assay: AUC (0 to 4 hrs) in mouse at 50 mg/kg, po; assay type: ADME, organism-based; design: time < 4 hr, dose 50 mg/kg, route oral; conditions: plasma
Result type: AUC(0-t) at 4 h (µM·h)

[[record]]
molecule = "Cc1cc2c(F)c(Oc3ncnn4cc(OC[C@@H](C)OC(=O)CN)c(C)c34)ccc2[nH]1"
result_type = "AUC(0-t) at 4 h"
assay_value = 69

[[record]]
molecule = "Cc1cc2c(F)c(Oc3ncnn4cc(OC[C@@H](C)O)c(C)c34)ccc2[nH]1"
result_type = "AUC(0-t) at 4 h"
assay_value = 45

[[record]]
molecule = "Cc1cc2c(F)c(Oc3ncnn4cc(OC[C@@H](C)OC(=O)C(C)(C)N)c(C)c34)ccc2[nH]1"
result_type = "AUC(0-t) at 4 h"
assay_value = 46

[[record]]
molecule = "Cc1cc2c(F)c(Oc3ncnn4cc(OC[C@@H](C)OC(=O)C(C)N)c(C)c34)ccc2[nH]1 (single isomer, unassigned; 8)"
result_type = "AUC(0-t) at 4 h"
assay_value = 69

